Values were extracted from patent US20220162338A1.

Biological target: T1, human FXI (human coagulation Factor XI) (human, UniProt P03951 19-625)
T1 construct: Bought protein; Biotin-labeled form (HCXI-0150-B) was used in the hybridoma screen; also called FXI protein; FXI antigen
Experiment: BLI (Octet Fortebio), antibody on AHC (anti-human-Fc) sensor, FXI in solution
Measured endpoint: kon (M⁻¹ s⁻¹)

1. humanized antibody 36G9.10-hz43 (antibody, human IgG1, kappa, N297A, V domains shown) VH: QVQLVQSGAEVKKPGASVKVSCKASGFNIKDTYIHWVRQAPGQGLEWIGRIDPANDNTNYAQKFQGRVTMTADTSINTAYMELSRLRSDDTAVYYCAQDYDGFAMDYWGQGTLVTVSS VL: DIQMTQSPSSLSASVGDRVTITCKASQDINKYITWFQQKPGKAPKLLIHYTSTLQPGVPSRFSGSGSGRDYTLTISSLQPEDFATYYCLQYDYLLTFGGGTKVEIKR | 5.77e+06
2. humanized antibody 36G9.10-hz92 (antibody, human IgG1, kappa, N297A, V domains shown) VH: EVQLVQSGAEVKKPGATVKISCKASGFNIKDTYIHWVQQAPGKGLEWIGRIDPANDNTKYDPKFQGRVTITADTSTNTAYMELSSLRSEDTAVYYCAQDYDGFAMDYWGQGTLVTVSS VL: DIQMTQSPSSLSASVGDRVTITCKASQDINKYITWFQQKPGKAPKLLIHYTSTLQPGVPSRFSGSGSGTDFTLTISSLQPEDFATYYCLQYDYLLTFGGGTKVEIKR | 5.07e+06
3. humanized antibody 36G9.10-hz73 (antibody, human IgG1, kappa, N297A, V domains shown) VH: EVQLVQSGAEVKKPGATVKISCKASGFNIKDTYIHWVQQAPGKGLEWMGRIDPANDNTIYAEKFQGRVTITADTSTNTAYMELSSLRSEDTAVYYCAQDYDGFAMDYWGQGTLVTVSS VL: DIQMTQSPSSLSASVGDRVTITCKASQDINKYITWFQQKPGKAPKLLIHYTSTLQPGVPSRFSGSGSGRDYTLTISSLQPEDFATYYCLQYDYLLTFGGGTKVEIKR | 6.31e+06
4. humanized antibody 36G9.10-hz93 (antibody, human IgG1, kappa, N297A, V domains shown) VH: EVQLVQSGAEVKKPGATVKISCKASGFNIKDTYIHWVQQAPGKGLEWIGRIDPANDNTKYDPKFQGRVTITADTSTNTAYMELSSLRSEDTAVYYCAQDYDGFAMDYWGQGTLVTVSS VL: DIQMTQSPSSLSASVGDRVTITCKASQDINKYITWFQQKPGKAPKLLIHYTSTLQPGVPSRFSGSGSGRDYTLTISSLQPEDFATYYCLQYDYLLTFGGGTKVEIKR | 6.06e+06
5. humanized antibody 36G9.10-hz74 (antibody, human IgG1, kappa, N297A, V domains shown) VH: EVQLVQSGAEVKKPGATVKISCKASGFNIKDTYIHWVQQAPGKGLEWMGRIDPANDNTIYAEKFQGRVTITADTSTNTAYMELSSLRSEDTAVYYCAQDYDGFAMDYWGQGTLVTVSS VL: DIQMTQSPSSLSASVGDRVTITCKASQDINKYITWYQQKPGKAPKLLIYYTSTLQPGVPSRFSGSGSGTDFTFTISSLQPEDIATYYCLQYDYLLTFGGGTKVEIKR | 6.47e+06
